FYI, the data here is from ChEMBL document CHEMBL1125661.

target: Adenosine receptor A1 (Cavia porcellus, UniProt P47745)
Sequence (P47745 whole entry): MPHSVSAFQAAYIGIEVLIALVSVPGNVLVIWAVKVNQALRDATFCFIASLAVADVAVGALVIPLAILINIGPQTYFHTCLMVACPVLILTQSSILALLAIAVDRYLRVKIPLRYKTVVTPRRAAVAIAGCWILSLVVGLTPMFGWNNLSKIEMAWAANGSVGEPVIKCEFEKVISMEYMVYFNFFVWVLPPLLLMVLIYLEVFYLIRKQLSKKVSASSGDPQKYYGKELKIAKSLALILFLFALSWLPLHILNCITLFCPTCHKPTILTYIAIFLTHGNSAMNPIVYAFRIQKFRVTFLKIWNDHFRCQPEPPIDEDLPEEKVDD
pEC50: −log10 of the molar value.
Rule: condition met for pEC50 not less than 5, condition not met for anything less.

[[record]]
compound = "COc1cc(OC)cc(C(CNc2ncnc3c2ncn3[C@@H]2O[C@H](CO)[C@@H](O)[C@H]2O)c2ccccc2C)c1 (some centres undefined)"
classification = "condition met"

[[record]]
compound = "Nc1nc(OCCCC2CCCCC2)nc2c1ncn2C1O[C@@H](CO)[C@H](O)[C@@H]1O (some centres undefined)"
classification = "condition met"

[[record]]
compound = "Nc1nc(Cl)nc2c1ncn2[C@@H]1O[C@H](CO)[C@@H](O)[C@H]1O"
classification = "condition met"

[[record]]
compound = "Nc1nc(OCC2CCCCC2)nc2c1ncn2C1O[C@@H](CO)[C@H](O)[C@@H]1O (some centres undefined)"
classification = "condition not met"

[[record]]
compound = "Nc1nc(OCCC2CCCC2)nc2c1ncn2C1O[C@@H](CO)[C@H](O)[C@@H]1O (some centres undefined)"
classification = "condition not met"

